From various publications: pIC50 for CD73 (Homo sapiens (Human), UniProt P21589).
pIC50: −log10 of the molar value.

Consider the reported pIC50 for these compounds:
compound="O=P(O)(O)C(CO)(Cc1ncccn1)OC[C@H]1O[C@@H](n2ncc3c(NC4CCCC4)nc(Cl)nc32)[C@H](O)[C@@H]1O (mixture of isomers)" result="≥ 7.00"
compound=C[C@@H](Nc1nc(Cl)nc2c1cnn2[C@@H]1O[C@H](COP(=O)(O)CP(=O)(O)O)[C@@H](O)[C@H]1O)c1ccc(S(F)(F)(F)(F)F)cc1F result=8.80

Now look at this entry.
So what pIC50 did O=C(NCc1cc(C2CC2)[nH]n1)O[C@@H]1CCN(c2cn[nH]c(=O)c2Cl)C1 get with CD73 (Homo sapiens (Human), UniProt P21589)?
4.00 to 5.00
